assay: BET inhibitor-based combinations targeting novel dependencies in MECOM-rearranged (r) AML: SET-2 cell line (AID 2202231); details: SET-2 AML cells viability, CellTiter-Glo luminescence, 48 h; hits give low values, series mostly up to about 46 µM;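 also: plate controls were DMSO treated cells for no effect and wells without cells for full effect; nearly all actives have a fitted effect of over 35% in size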
Results filed as inconclusive are left out.
The following compounds are listed with their measured viability values.

Compound	viability [%]
CC[C@@H](C(N)=O)N1CCCC1=O	108
N[C@@H]1C[C@H]1c1ccccc1	95.9
C[C@]12CC[C@H](O)CC1=CC[C@@H]1[C@@H]2CC[C@]2(C)C(=O)CC[C@@H]12	109
O=C1CC[C@@]2(O)[C@H]3Cc4ccc(O)c5c4[C@@]2(CCN3CC2CC2)[C@H]1O5	123
O=c1cccc2n1CC1CNC[C@H]2C1	119
O=C1C=CC[C@@H]2[C@H]3CCCN4CCC[C@@H](CN12)[C@@H]34	108
Cc1c(N)nc([C@H](CC(N)=O)NC[C@@H](N)C(N)=O)nc1C(=O)N[C@H](C(=O)N[C@@H](C)[C@H](O)[C@@H](C)C(=O)N[C@@H](C(=O)NCCc1nc(-c2nc(C(=O)NCCC[S+](C)C)cs2)cs1)[C@@H](C)O)C(O[C@H]1O[C@H](CO)[C@H](O)[C@@H](O)[C@H]1O[C@H]1O[C@H](CO)[C@@H](O)[C@H](OC(N)=O)[C@@H]1O)c1cnc[nH]1 (some centres not stated)	100
CCN(CC)C(=O)c1ccc(C2=CC3(CCNCC3)Oc3cccc(O)c32)cc1	99.6
CC(=O)O[C@@]12CO[C@@H]1C[C@H](O)[C@@]1(C)C(=O)[C@H](O)C3=C(C)[C@@H](O)C[C@@](O)([C@@H](OC(=O)c4ccccc4)[C@H]21)C3(C)C	103
CN[C@@H]1Cc2cccc3[nH]c(=O)n(c23)C1	120
Cc1cccc(C)c1NC(=O)CN1CCCC1=O	109
C[C@]12CC[C@H]3[C@@H](CC[C@@]45O[C@@H]4C(O)=C(C#N)C[C@]35C)[C@@H]1CC[C@@H]2O	112
COc1cc(C)[nH]c(=O)c1CNC(=O)c1c(C)n([C@H](C)C2CCN(CC(F)(F)F)CC2)c2ccccc12	101
C[C@]12CC[C@@H]3c4ccc(OC(=O)N(CCCl)CCCl)cc4CC[C@H]3[C@@H]1CC[C@@H]2OP(=O)(O)O	112
COC1(CS(=O)c2ccccc2)CCN(CCc2c[nH]c3ccc(F)cc23)CC1 (configuration not stated)	110
CCOC(=O)Nc1ccc(NCc2ccc(F)cc2)cc1N	102
O=S(=O)(F)Cc1ccccc1	112
Cn1cc(C2=C(c3cn(C4CCN(Cc5ccccn5)CC4)c4ccccc34)C(=O)NC2=O)c2ccccc21	103
O=C(O)c1nn(Cc2ccc(Cl)cc2Cl)c2ccccc12	107
COc1cc(C(=O)N2CC[C@@H](O)[C@@H](N)C2)cc2nc(-c3cc4ccccc4n3CC3CC3)n(C)c12	103
C[C@@H](C1CC[C@@]2(O)C3=CC(=O)[C@@H]4C[C@@H](O)[C@@H](O)C[C@]4(C)[C@H]3CC[C@]12C)[C@H](O)CCC(C)(C)O (some centres not stated)	104
C[C@@H]1CC[C@H]2[C@@H](C)C(=O)O[C@@H]3O[C@@]4(C)CC[C@@H]1[C@]32OO4	93.5
C[C@]12CCC(=O)C(O)=C1CC[C@@H]1[C@@H]2CC[C@]2(C)C(=O)CC[C@@H]12	97.8
C=C[C@H]1CN2CCC1C[C@@H]2[C@@H](O)c1ccnc2ccccc12 (some centres not stated)	98.5
COc1ccc(C(=O)N2CCCC2=O)cc1	119
O=c1[nH]c2ccccc2n1CCCN1CCC(n2c(=O)[nH]c3cc(Cl)ccc32)CC1	95.9
CC(C)c1cccc(C(C)C)c1O	105
CCOC(=O)c1c(C(C#N)=CN)c2ccc(Cl)c(Cl)c2n1C	114
C#CC1(O)CCC2C3CCC4=CC(=O)CCC4(C)C3CCC21C (configuration not stated)	107
O=C(N[C@H]1CN2CCC1CC2)c1ccc(Cl)cc1	112
CCc1c(C(=O)C(N)=O)c2c(OCC(=O)O)cccc2n1Cc1ccccc1	113
CCCN1CCO[C@@H]2c3cc(O)ccc3OC[C@H]21	92
COC[C@@H](NC(C)=O)C(=O)NCc1ccccc1	112
C#C[C@]1(O)C=C[C@H]2[C@@H]3CCC4=CC(=O)CC[C@@H]4[C@H]3CC[C@@]21CC	95.4
CCN1C[C@]2(OC(=O)c3ccccc3NC(C)=O)CC[C@H](OC)[C@@]34[C@H]5CC6[C@@H](OC)C[C@](O)(C(C[C@@H]23)[C@@H]14)[C@@]5(O)[C@@H]6OC	104
CC1(C)CC(O)CC(C)(C)N1O	115
CN1C(=O)[C@@H](NC(=O)[C@H](CCC(F)(F)F)[C@H](CCC(F)(F)F)C(N)=O)N=C(c2ccccc2)c2ccccc21	114
